Source listed as patent US5607937A.

# subject-of-test: trypsin (Bos taurus)
# Sequence (P00760 24-246): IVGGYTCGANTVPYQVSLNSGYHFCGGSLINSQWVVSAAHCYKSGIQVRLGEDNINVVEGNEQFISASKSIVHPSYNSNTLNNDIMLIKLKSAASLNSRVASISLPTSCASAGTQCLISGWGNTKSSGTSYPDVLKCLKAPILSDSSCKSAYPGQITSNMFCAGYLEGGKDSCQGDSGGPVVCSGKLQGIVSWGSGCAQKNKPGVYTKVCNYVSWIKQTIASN
# assay-comment: inhibition of trypsin, dissociation constant Ki
# Format: biochemical
# Parameters: thrombin and the related enzymes trypsin, plasmin, factor Xa, factor XIIa
# test-context: Table 1; read-out: Ki, Trypsin
measure-name: Ki (nM)

[a] CN(C)C(=O)N1CCN(C(=O)C(Cc2cccc(C(=N)N)c2)NS(=O)(=O)c2cccc3ccccc23)CC1 (stereo not shown)
[b] Cc1c(C)c(S(=O)(=O)NC(Cc2cccc(C(=N)N)c2)C(=O)N2CCN(CCO)CC2)c(C)c2c1OC(C)(C)CC2 (stereo not shown)
[c] N=C(N)c1cccc(C[C@H](NS(=O)(=O)c2ccc3ccccc3c2)C(=O)N2CCN(C=O)CC2)c1
[d] CC(=O)N1CCN(C(=O)C(Cc2cccc(C(=N)N)c2)NS(=O)(=O)c2ccc3c(c2)C(=O)c2ccccc2C3=O)CC1 (stereo not shown)
[e] Cc1cc(C)c(S(=O)(=O)N2CCN(C(=O)C(Cc3cccc(C(=N)N)c3)NS(=O)(=O)c3ccc4ccccc4c3)CC2)c(C)c1 (stereo not shown)
Put the items above in order of decreasing Ki. Lab note: final answer is the ordered label list.
b, e, a, c, d
(b: 3300 nM, e: 590 nM, a: 250 nM, c: 73 nM, d: 26 nM)

* * *

# System: coagulation in human plasma
# assay-comment: prothrombin time (PT, Quick value) in human plasma
Where a name gives a salt, the structure may show the parent alone.
Items are presented alongside their recorded Concentr. to double the Prothrombin time.
// return numeric value only (unit: µmol/L, not printed)

Sample records with Concentr. to double the Prothrombin time:
[
  {
    "compound": "CS(=O)(=O)N1CCN(C(=O)[C@H](Cc2cccc(C(=N)N)c2)NS(=O)(=O)c2ccc3ccccc3c2)CC1.Cl",
    "Concentr. to double the Prothrombin time / µmol/L": 0.39
  },
  {
    "compound": "CC(=O)N1CCN(C(=O)C(Cc2cccc(C(=N)N)c2)NS(=O)(=O)c2ccc3c(c2)C(=O)c2ccccc2C3=O)CC1 (centres unmarked)",
    "Concentr. to double the Prothrombin time / µmol/L": 2.0
  },
  {
    "compound": "Cc1c(C)c(S(=O)(=O)N[C@@H](Cc2cccc(C(=N)N)c2)C(=O)N2CCN(S(C)(=O)=O)CC2)c(C)c2c1OC(C)(C)CC2 [Compound 10, hydrochloride]",
    "Concentr. to double the Prothrombin time / µmol/L": 0.8
  },
  {
    "compound": "CC1(C)C2CCC1(CS(=O)(=O)N[C@@H](Cc1cccc(C(=N)N)c1)C(=O)N1CCN(S(C)(=O)=O)CC1)C(=O)C2 (single isomer, unassigned) [Compound 7]",
    "Concentr. to double the Prothrombin time / µmol/L": 1.0
  }
]

Turning to the following compound.
What does the data say about its Concentr. to double the Prothrombin time? Entry: Cl.Cl.N=C(N)c1cccc(C[C@H](NS(=O)(=O)c2ccc3ccccc3c2)C(=O)N2CCN(CCO)CC2)c1
1.3

* * *

# subject-of-test: plasmin (Homo sapiens)
# assay-comment: inhibition of plasmin, dissociation constant Ki
# test-context: read-out: Ki, Plasmin; Table 1
measure-name: Ki (µM)

Sample records with Ki:
[
  {
    "molecule": "CC1(C)C2CCC1(CS(=O)(=O)N[C@@H](Cc1cccc(C(=N)N)c1)C(=O)N1CCN(S(C)(=O)=O)CC1)C(=O)C2 (single isomer, unassigned) [Compound 7]",
    "subject-of-test": "plasmin (Homo sapiens)",
    "measure-name": "Ki",
    "unit-abbrev": "µM",
    "recorded-result": 14
  },
  {
    "molecule": "CS(=O)(=O)N1CCN(C(=O)C(Cc2cccc(C(=N)N)c2)NS(=O)(=O)c2cccc3ccccc23)CC1 (stereo not shown)",
    "subject-of-test": "plasmin (Homo sapiens)",
    "measure-name": "Ki",
    "unit-abbrev": "µM",
    "recorded-result": 5
  },
  {
    "molecule": "CC(=O)N1CCN(C(=O)C(Cc2cccc(C(=N)N)c2)NS(=O)(=O)c2c(C(C)C)cc(C(C)C)cc2C(C)C)CC1 (stereo not shown)",
    "subject-of-test": "plasmin (Homo sapiens)",
    "measure-name": "Ki",
    "unit-abbrev": "µM",
    "recorded-result": 3
  },
  {
    "molecule": "CC1(C)C2CCC1(CS(=O)(=O)N[C@@H](Cc1cccc(C(=N)N)c1)C(=O)N1CCN(S(C)(=O)=O)CC1)C(=O)C2 (single isomer, unassigned) [Compound 8]",
    "subject-of-test": "plasmin (Homo sapiens)",
    "measure-name": "Ki",
    "unit-abbrev": "µM",
    "recorded-result": 29
  }
]

[a] N=C(N)c1cccc(CC(NS(=O)(=O)c2ccc3ccccc3c2)C(=O)N2CCN(C(=O)C3CCCCC3)CC2)c1 (stereo not shown)
[b] CN(C)C(=O)N1CCN(C(=O)C(Cc2cccc(C(=N)N)c2)NS(=O)(=O)c2cccc3ccccc23)CC1 (stereo not shown)
I need your help: which of the pair a , b has higher Ki? Indicate which entry you chose by stating its label.
a
(a: 10.2 µM, b: 4.8 µM)

* * *

# assay-comment: plasma concentration in rats after rectal administration
# Format: in vivo
# test-context: plasma; rat, rectal 20 mg/kg, 300 min
measure-name: concentration at 5 h (ng/mL)
// return numeric value only (unit: ng/mL, not printed)

What does the data say about its concentration at 5 h? Entry: Cl.Cl.N=C(N)c1cccc(C[C@H](NS(=O)(=O)c2ccc3ccccc3c2)C(=O)N2CCN(CCO)CC2)c1
61

* * *

Items are presented alongside their recorded concentration at 0.5 h.
# assay-comment: plasma concentration in rats after rectal administration
# Type: in vivo
# test-context: plasma; rat, rectal 20 mg/kg, 30 min
// return numeric value only (unit: ng/mL, not printed)

Sample records with concentration at 0.5 h:
[
  {
    "compound": "CN(C)C(=O)N1CCN(C(=O)[C@H](Cc2cccc(C(=N)N)c2)NS(=O)(=O)c2ccc3ccccc3c2)CC1 [Compound 6]",
    "recorded-result": 1180
  },
  {
    "compound": "CS(=O)(=O)N1CCN(C(=O)[C@H](Cc2cccc(C(=N)N)c2)NS(=O)(=O)c2ccc3ccccc3c2)CC1.Cl [Compound 5]",
    "recorded-result": 1650
  }
]

Turning to the following compound.
What does the data say about its concentration at 0.5 h? Entry: Cl.Cl.N=C(N)c1cccc(C[C@H](NS(=O)(=O)c2ccc3ccccc3c2)C(=O)N2CCN(CCO)CC2)c1 [Compound 3]
7260

* * *

# subject-of-test: plasmin (Homo sapiens, UniProt P00747)
# Sequence (P00747 581-810 limits assumed): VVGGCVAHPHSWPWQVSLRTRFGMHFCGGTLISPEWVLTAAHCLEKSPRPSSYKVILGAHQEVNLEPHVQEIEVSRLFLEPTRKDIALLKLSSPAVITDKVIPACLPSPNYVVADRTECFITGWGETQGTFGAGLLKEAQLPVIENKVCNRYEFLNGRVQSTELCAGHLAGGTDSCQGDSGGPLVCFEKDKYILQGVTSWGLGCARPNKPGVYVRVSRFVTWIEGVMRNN
# Sequence (P00747 97-580 partner limits assumed): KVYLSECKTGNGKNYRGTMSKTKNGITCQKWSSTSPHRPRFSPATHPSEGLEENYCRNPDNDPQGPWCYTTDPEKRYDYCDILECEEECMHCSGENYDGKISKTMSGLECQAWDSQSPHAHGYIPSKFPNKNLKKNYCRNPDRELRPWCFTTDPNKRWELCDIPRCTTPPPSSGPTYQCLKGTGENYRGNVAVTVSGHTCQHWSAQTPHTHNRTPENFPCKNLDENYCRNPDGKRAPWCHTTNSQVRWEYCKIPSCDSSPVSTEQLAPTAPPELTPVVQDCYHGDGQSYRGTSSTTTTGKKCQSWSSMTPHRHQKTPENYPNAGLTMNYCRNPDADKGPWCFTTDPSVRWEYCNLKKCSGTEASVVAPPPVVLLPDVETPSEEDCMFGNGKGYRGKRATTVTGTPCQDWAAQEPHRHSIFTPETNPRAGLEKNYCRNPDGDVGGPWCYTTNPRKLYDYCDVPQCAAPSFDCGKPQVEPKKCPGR
# assay-comment: inhibition of plasmin, dissociation constant Ki
measure-name: Ki (µM)

Sample records with Ki:
[
  {
    "compound": "Cc1cc(C)c(S(=O)(=O)N2CCN(C(=O)C(Cc3cccc(C(=N)N)c3)NS(=O)(=O)c3ccc4ccccc4c3)CC2)c(C)c1 (stereo not drawn) [AMD 2-Naph SO2 -TMeP]",
    "Ki [µM]": 31
  },
  {
    "compound": "N=C(N)c1cccc(CC(NS(=O)(=O)c2ccc3ccccc3c2)C(=O)N2CCN(C(=O)C3CCC3)CC2)c1 (stereo not drawn) [AMD 2-Naph CO-cBu]",
    "Ki [µM]": 7.6
  },
  {
    "compound": "COCC(=O)N1CCN(C(=O)C(Cc2cccc(C(=N)N)c2)NS(=O)(=O)c2ccc3ccccc3c2)CC1 (stereo not drawn) [AMD 2-Naph COCH2 OMe]",
    "Ki [µM]": 6.2
  },
  {
    "compound": "COc1cc(C)c(S(=O)(=O)N[C@@H](Cc2cccc(C(=N)N)c2)C(=O)N2CCN(S(C)(=O)=O)CC2)c(C)c1C [Compound 9]",
    "Ki [µM]": 8.2
  }
]

[I] Cc1c(C)c(S(=O)(=O)NC(Cc2cccc(C(=N)N)c2)C(=O)N2CCN(CCO)CC2)c(C)c2c1OC(C)(C)CC2 (stereo not drawn) [AMD Pmc EtOH]
[II] N=C(N)c1cccc(CC(NS(=O)(=O)c2ccc3ccccc3c2)C(=O)N2CCN(C(=O)C3CC3)CC2)c1 (stereo not drawn) [AMD 2-Naph CO-cPr]
I need your help: which of the pair I , II has higher Ki? Indicate which entry you chose by stating its label.
I

* * *

# assay-comment: plasma concentration in rats after rectal administration
# Assay type: in vivo
# test-context: plasma; rat, rectal 20 mg/kg, 180 min
measure-name: concentration at 3 h (ng/mL)
// return numeric value only (unit: ng/mL, not printed)

[
  {
    "smiles": "CS(=O)(=O)N1CCN(C(=O)[C@H](Cc2cccc(C(=N)N)c2)NS(=O)(=O)c2ccc3ccccc3c2)CC1.Cl",
    "measure-name": "concentration at 3 h",
    "recorded-result": 192
  },
  {
    "smiles": "Cl.Cl.N=C(N)c1cccc(C[C@H](NS(=O)(=O)c2ccc3ccccc3c2)C(=O)N2CCN(CCO)CC2)c1",
    "measure-name": "concentration at 3 h",
    "recorded-result": 814
  }
]

Turning to the following compound.
What does the data say about its concentration at 3 h? Entry: CN(C)C(=O)N1CCN(C(=O)[C@H](Cc2cccc(C(=N)N)c2)NS(=O)(=O)c2ccc3ccccc3c2)CC1
272
